assay: gradient 5% acetonitrile 3 min, to 50% in 2 min, to 85% in 15 min, held 3 min, 100 µL/min; details: column: Zorbax Extend-C18 2.1 x 50 mm; eluents: water / acetonitrile, 0.1% formic acid
Hi there, I'd appreciate the recorded RP-LC retention time for every entry that follows.
Numbers only, in s.

Recorded results for 3 compounds are shown here.
| Compound | RP-LC retention time (s) |
| --- | --- |
| CCOc1ccc(S(=O)(=O)N2CCC(c3noc(-c4ccc(F)cc4)n3)CC2)cc1 | 1120 |
| COc1cccc(S(=O)(=O)N2CCC3(CC2)c2nccn2CCN3C)c1 | 607 |
| Cc1cnc(C(=O)NCC23CCC=C2N(C)C(=O)CC3)cn1 (stereo not given) | 666 |

Items follow; give RP-LC retention time for each.
1. Cc1ccc2[nH]c(=O)c(CCC(=O)NC(C)c3cn(C)nc3C)cc2c1 (stereo not given)
2. CCSc1ccccc1C(=O)NCc1nc(COc2ccc(OC)cc2)no1

1. 618
2. 848
